Record form. Attribute: pKi. Fill in for each entry.
# Method description: Inhibition of Ostrinia furnacalis beta-N-acetylhexosaminidase using pNP-beta-GlcNAc as substrate by dixon plot analysis
One number for each entry, as −log10 of the molar value.

# return pKi for each item in the list
1. Cc1nnc(CNCCN2C(=O)c3cccc4cccc(c34)C2=O)s1
2. Cc1nnc(CNCCN2C(=O)c3cccc4c(N(C)C)ccc(c34)C2=O)s1

[5.37, 6.52]

---

# Target system: Protein O-GlcNAcase (Homo sapiens) (UniProt O60502)
# Sequence (whole entry): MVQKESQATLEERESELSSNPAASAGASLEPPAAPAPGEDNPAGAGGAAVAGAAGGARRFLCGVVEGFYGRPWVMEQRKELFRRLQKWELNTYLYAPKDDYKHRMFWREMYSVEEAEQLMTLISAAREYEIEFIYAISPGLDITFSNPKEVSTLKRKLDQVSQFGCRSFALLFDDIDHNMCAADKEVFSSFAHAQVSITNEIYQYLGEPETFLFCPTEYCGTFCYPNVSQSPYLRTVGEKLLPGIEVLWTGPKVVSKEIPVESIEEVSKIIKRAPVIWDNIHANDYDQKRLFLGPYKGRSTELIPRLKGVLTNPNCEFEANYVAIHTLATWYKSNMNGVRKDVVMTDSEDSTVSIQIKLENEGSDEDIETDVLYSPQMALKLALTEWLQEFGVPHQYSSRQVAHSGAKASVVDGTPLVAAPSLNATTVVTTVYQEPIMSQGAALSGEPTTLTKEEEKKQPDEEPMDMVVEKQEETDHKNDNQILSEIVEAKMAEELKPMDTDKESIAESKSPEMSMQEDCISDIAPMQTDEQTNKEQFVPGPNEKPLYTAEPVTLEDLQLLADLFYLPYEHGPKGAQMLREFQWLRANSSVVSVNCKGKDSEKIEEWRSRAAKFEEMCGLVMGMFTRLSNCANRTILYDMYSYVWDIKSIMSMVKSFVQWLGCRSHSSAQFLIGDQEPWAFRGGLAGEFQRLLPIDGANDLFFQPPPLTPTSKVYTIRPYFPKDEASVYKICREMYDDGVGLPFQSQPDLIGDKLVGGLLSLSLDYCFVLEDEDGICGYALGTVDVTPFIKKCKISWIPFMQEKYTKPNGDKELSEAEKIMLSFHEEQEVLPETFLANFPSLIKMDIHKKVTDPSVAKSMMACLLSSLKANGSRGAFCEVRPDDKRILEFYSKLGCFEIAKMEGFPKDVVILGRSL
# Method description: Inhibition of recombinant human OGA expressed in Escherichia coli BL21 (DE3) at 20 uM using 4-Mu-GlcNAc as substrate preincubated for 10 mins followed by substrate addition and measured after 30 mins by fluorescence assay relative to control
Record form. Attribute: inhibition. Fill in for each entry.
Give bare numbers, in %.

Previously resolved entries follow.
Compound: CC(=O)N[C@@H]1[C@@H](O)[C@H](O)[C@@H](CO)O[C@H]1SCCNCCN1C(=O)c2cccc3c(N4CCCCC4)ccc(c23)C1=O
inhibition, %: 36.7

Compound: COc1ccc2c3c(cccc13)C(=O)N(CCNCCS[C@@H]1O[C@H](CO)[C@@H](O)[C@H](O)[C@H]1NC(C)=O)C2=O
inhibition, %: 56.4

Compound: CC(=O)N[C@@H]1[C@@H](O)[C@H](O)[C@@H](CO)O[C@H]1SCCCNCCN1C(=O)c2cccc3c(N4CCCCC4)ccc(c23)C1=O
inhibition, %: 67.5

Attention now turns to another entry.
State its inhibition on Protein O-GlcNAcase (Homo sapiens) (UniProt O60502): "CC(=O)N[C@@H]1[C@@H](O)[C@H](O)[C@@H](CO)O[C@H]1SCCNCCCN1C(=O)c2cccc3c(N4CCCCC4)ccc(c23)C1=O"
87.6
